Origin of values: patent US7517884B2

# key: entry, value: EC50
MEASURED_TARGET: PPAR-delta (UniProt Q03181)
Sequence (Q03181 1-441): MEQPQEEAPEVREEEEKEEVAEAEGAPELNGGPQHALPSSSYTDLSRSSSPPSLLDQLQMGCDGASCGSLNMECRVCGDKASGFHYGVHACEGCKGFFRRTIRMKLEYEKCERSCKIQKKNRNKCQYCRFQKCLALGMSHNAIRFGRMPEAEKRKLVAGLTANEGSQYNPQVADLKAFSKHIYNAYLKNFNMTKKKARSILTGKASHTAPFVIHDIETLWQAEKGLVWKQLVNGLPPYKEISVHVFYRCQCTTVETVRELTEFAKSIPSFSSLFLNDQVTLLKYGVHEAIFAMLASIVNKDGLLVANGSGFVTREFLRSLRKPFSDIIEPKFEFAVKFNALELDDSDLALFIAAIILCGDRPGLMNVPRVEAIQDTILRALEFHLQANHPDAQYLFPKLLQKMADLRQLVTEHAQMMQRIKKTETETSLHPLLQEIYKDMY
PROTOCOL_TEXT: PPAR-delta transactivation assay (GAL4 chimera, luciferase reporter) in CV-1 cells
Type: cell-based, murine and human
CONDITION_SET: GAL4-PPAR LBD chimera

COMPOUND | EC50
O=C(O)C1CCc2ccc(S(=O)(=O)N3CCCN(c4ccc(C(F)(F)F)cn4)CC3)cc21 (centres unmarked) [Example 67] | < 5 µM
CCC1CN(c2ccc(C(F)(F)F)c(Cl)c2)CCN1S(=O)(=O)c1ccc2c(c1)C(C(=O)O)CC2 (centres unmarked) [Example 56] | < 5 µM
O=C(O)Cc1csc2ccc(S(=O)(=O)N3CCN(c4ccc(C(F)(F)F)c(F)c4)CC3)cc12 [Example 48] | < 5 µM
O=C(O)C1Cc2ccc(S(=O)(=O)N3CCN(c4ccc(Cl)c(Cl)c4)CC3)cc2C1 (centres unmarked) [Example 7] | < 5 µM
CC1CN(S(=O)(=O)c2ccc3scc(CC(=O)O)c3c2)C(C)CN1c1ccc(C(F)(F)F)cn1 (centres unmarked) [Example 44] | < 5 µM
COc1cc2c(cc1S(=O)(=O)N1CCN(c3ccc(C(F)(F)F)cc3)CC1)CCC2CC(=O)O (centres unmarked) [Example 29] | 5 to 100 µM
C[C@@H]1CN(c2cccc(OC(F)(F)F)c2)C[C@H](C)N1S(=O)(=O)c1cccc2c1CC(C(=O)O)C2 (single isomer, unassigned) [Example 129] | < 5 µM
COc1cc(N2C[C@@H](C)N(S(=O)(=O)c3cccc4c3CC(C(=O)O)C4)[C@@H](C)C2)ccc1Cl (some centres unmarked) [Example 133] | < 5 µM
O=C(O)C1Cc2cccc(S(=O)(=O)N3CCN(c4ccc(OCC(F)(F)F)cc4)CC3)c2C1 (centres unmarked) [Example 114] | 5 to 100 µM
C[C@@H]1CN(c2ccc(OC(F)(F)F)cc2)C[C@H](C)N1S(=O)(=O)c1cccc2c1CC(C(=O)O)C2 (single isomer, unassigned) [Example 80] | < 5 µM
O=C(O)C1CCc2ccc(S(=O)(=O)N3CCN(c4ccc(C(F)(F)F)cc4F)CC3)cc21 (centres unmarked) [Example 45] | < 5 µM
O=C(O)Cc1csc2ccc(S(=O)(=O)N3CCN(c4ccc(C(F)(F)F)cc4)CC3)cc12 [Example 41] | < 5 µM
C[C@@H]1CN(c2ccc(C(F)(F)F)c(Cl)c2)C[C@H](C)N1S(=O)(=O)c1ccc2c(c1)C(C(=O)O)CC2 (some centres unmarked) [Example 50] | < 5 µM
C[C@@H]1CN(c2ccc(C(F)(F)F)c(Cl)c2)C[C@H](C)N1S(=O)(=O)c1cccc2c1CC(C(=O)O)C2 (single isomer, unassigned) [Example 139] | 5 to 100 µM

----------
Here, each record is paired with measured EC50 data.
MEASURED_TARGET: PPAR-alpha (UniProt Q07869)
PROTOCOL_TEXT: PPAR-alpha transactivation assay (GAL4 chimera, luciferase reporter) in CV-1 cells
CONDITION_SET: GAL4-PPAR LBD chimera

COMPOUND | MEASURED_TARGET | EC50
O=C(O)C1Cc2cccc(S(=O)(=O)N3CCN(c4cccc(OC(F)(F)F)c4)CC3)c2C1 (centres unmarked) [Example 113] | PPAR-alpha (UniProt Q07869) | 5 to 100 µM
C[C@H]1CN(c2ccc(C(F)(F)F)cn2)CCN1S(=O)(=O)c1cccc2c1CC(C(=O)O)C2 (some centres unmarked) [Example 94] | PPAR-alpha (UniProt Q07869) | 5 to 100 µM
C[C@@H]1CN(c2ccc(C(F)(F)F)cc2)C[C@H](C)N1S(=O)(=O)c1ccc2c(c1)C(C(=O)O)CC2 (some centres unmarked) [Example 104] | PPAR-alpha (UniProt Q07869) | < 5 µM
C[C@@H]1CN(c2ccc(Cl)cc2Cl)C[C@H](C)N1S(=O)(=O)c1ccc2c(c1)C(C(=O)O)CC2 (some centres unmarked) [Example 103] | PPAR-alpha (UniProt Q07869) | 5 to 100 µM
CCC1CN(S(=O)(=O)c2ccc3c(c2)C(C(=O)O)CC3)CCN1c1ccc(C(F)(F)F)cn1 (centres unmarked) [Example 64] | PPAR-alpha (UniProt Q07869) | < 5 µM
COc1cc(N2C[C@@H](C)N(S(=O)(=O)c3cccc4c3CC(C(=O)O)C4)[C@@H](C)C2)ccc1Cl (some centres unmarked) [Example 133] | PPAR-alpha (UniProt Q07869) | > 100 µM
C[C@@H]1CN(c2ccc(C(F)(F)F)cn2)C[C@H](C)N1S(=O)(=O)c1ccc2c(c1)C(C(=O)O)CC2 (some centres unmarked) [Example 27] | PPAR-alpha (UniProt Q07869) | 5 to 100 µM
C[C@@H]1CN(c2ccc(C(C)(C)C)cc2)C[C@H](C)N1S(=O)(=O)c1cccc2c1CC(C(=O)O)C2 (some centres unmarked) [Example 106] | PPAR-alpha (UniProt Q07869) | 5 to 100 µM
O=C(O)C1Cc2cccc(S(=O)(=O)N3CCN(c4ccc(Cl)cc4)CC3)c2C1 (centres unmarked) [Example 92] | PPAR-alpha (UniProt Q07869) | 5 to 100 µM
C[C@H]1CN(c2ccc(OC(F)(F)F)cc2)CCN1S(=O)(=O)c1ccc2c(c1)C(C(=O)O)CC2 (some centres unmarked) [Example 62] | PPAR-alpha (UniProt Q07869) | < 5 µM
C[C@@H]1CN(c2cc(F)cc(F)c2Cl)C[C@H](C)N1S(=O)(=O)c1cccc2c1CC(C(=O)O)C2 (some centres unmarked) [Example 123] | PPAR-alpha (UniProt Q07869) | > 100 µM
C[C@@H]1CN(Cc2ccc(C(F)(F)F)cc2)C[C@H](C)N1S(=O)(=O)c1cccc2c1CC(C(=O)O)C2 (some centres unmarked) [Example 96] | PPAR-alpha (UniProt Q07869) | > 100 µM
C[C@@H]1CN(c2cccc(OC(F)(F)F)c2)C[C@H](C)N1S(=O)(=O)c1cccc2c1CC(C(=O)O)C2 (single isomer, unassigned) [Example 130] | PPAR-alpha (UniProt Q07869) | > 100 µM
O=C(O)Cn1ccc2cc(S(=O)(=O)N3CCN(c4ccc(C(F)(F)F)cc4)CC3)ccc21 [Example 31] | PPAR-alpha (UniProt Q07869) | > 100 µM

----------
Listed next: entries and their corresponding EC50.
MEASURED_TARGET: PPAR-gamma (UniProt P37231)
PROTOCOL_TEXT: PPAR-gamma transactivation assay (GAL4 chimera, luciferase reporter) in CV-1 cells
CONDITION_SET: GAL4-PPAR LBD chimera

COMPOUND | EC50
C[C@@H]1CN(c2ccc(Cl)cc2)C[C@H](C)N1S(=O)(=O)c1cccc2c1CC(C(=O)O)C2 (single isomer, unassigned) [Example 128] | > 100 µM
C[C@H]1CN(c2ccc(C(F)(F)F)cn2)CCN1S(=O)(=O)c1ccc2c(c1)C(C(=O)O)CC2 (some centres unmarked) | < 5 µM
C[C@@H]1[C@H](C)N(c2ccc(C(F)(F)F)cn2)CCN1S(=O)(=O)c1ccc2c(c1)C(C(=O)O)CC2 (stereo in doubt) | < 5 µM
C[C@@H]1CN(c2ccc(C(F)(F)F)cn2)CCN1S(=O)(=O)c1ccc2c(c1)C(C(=O)O)CC2 (some centres unmarked) | < 5 µM
O=C(O)C1Cc2cccc(S(=O)(=O)N3CCN(c4ccc(C(F)(F)F)cc4)CC3)c2C1 (centres unmarked) | < 5 µM
C[C@@H]1CN(c2ccc(C(C)(C)C)cc2)C[C@H](C)N1S(=O)(=O)c1cccc2c1CC(C(=O)O)C2 (some centres unmarked) | 5 to 100 µM
C[C@H]1CN(c2ccc(OC(F)(F)F)cc2)CCN1S(=O)(=O)c1ccc2c(c1)C(C(=O)O)CC2 (some centres unmarked) | 5 to 100 µM
C[C@H]1CN(S(=O)(=O)c2ccc3c(c2)C(C(=O)O)CC3)CCN1c1ccc(OC(F)(F)F)cc1 (some centres unmarked) | < 5 µM
C[C@@H]1CN(c2ccc(OC(F)(F)F)cc2)C[C@H](C)N1S(=O)(=O)c1ccc2c(c1)CC(C(=O)O)C2 (some centres unmarked) | 5 to 100 µM
O=C(O)CC1Cc2ccc(S(=O)(=O)N3CCN(c4ccc(C(F)(F)F)cc4)CC3)cc2C1 (centres unmarked) | 5 to 100 µM
C[C@@H]1CN(c2ccc(OC(F)(F)F)cc2)C[C@H](C)N1S(=O)(=O)c1cccc2c1CC(C(=O)O)C2 (single isomer, unassigned) [Example 80] | > 100 µM
C[C@@H]1CN(c2cccc(OC(F)(F)F)c2)C[C@H](C)N1S(=O)(=O)c1cccc2c1CC(C(=O)O)C2 (some centres unmarked) [Example 115] | 5 to 100 µM
O=C(O)C1Cc2cccc(S(=O)(=O)N3CCN(c4ccc(C(F)(F)F)cn4)CC3)c2C1 (single isomer, unassigned) | < 5 µM
CCC1CN(c2ccc(C(F)(F)F)cn2)CCN1S(=O)(=O)c1ccc2c(c1)C(C(=O)O)CC2 (centres unmarked) | < 5 µM
